# System: E. coli
# MEASUREMENT DESCRIPTION: Range of MIC for E. coli strains
# SETUP CONDITIONS: Escherichia coli, read-out: Minimum inhibitory concentration (MIC), E. coli (Human Serum)
Listing of entries alongside the reported MIC.
EXPERIMENTAL ENDPOINT: MIC

COMPOUND	RECORDED VALUE
CCC(=O)OCOC(=O)N(CC(=O)Nc1cc(N(C)C)c2c(c1O)C(=O)C1=C(O)[C@]3(O)C(=O)C(C(N)=O)=C(O)[C@@H](N(C)C)[C@@H]3C[C@@H]1C2)C(C)(C)C [Example 49]	4 to 32 µg/mL
CN(C)c1cc(NC(=O)CN(C(=O)OCOC(=O)C2CCC2)C(C)(C)C)c(O)c2c1C[C@H]1C[C@H]3[C@H](N(C)C)C(O)=C(C(N)=O)C(=O)[C@@]3(O)C(O)=C1C2=O [Example 62]	2 to 8 µg/mL
CCCCN(CC(=O)Nc1cc(N(C)C)c2c(c1O)C(=O)C1=C(O)[C@]3(O)C(=O)C(C(N)=O)=C(O)[C@@H](N(C)C)[C@@H]3C[C@@H]1C2)C(=O)OCOC(=O)c1ccc(F)cc1 [Example 4]	8 to 32 µg/mL
CCCN(CC(=O)Nc1cc(N(C)C)c2c(c1O)C(=O)C1=C(O)[C@]3(O)C(=O)C(C(N)=O)=C(O)[C@@H](N(C)C)[C@@H]3C[C@@H]1C2)C(=O)OCOC(=O)c1ccsc1 [Example 27]	4 to 16 µg/mL
CCCCCCC(=O)OCOC(=O)N(CCC)CC(=O)Nc1cc(N(C)C)c2c(c1O)C(=O)C1=C(O)[C@]3(O)C(=O)C(C(N)=O)=C(O)[C@@H](N(C)C)[C@@H]3C[C@@H]1C2 [Example 19]	8 to 32 µg/mL
CN(C)c1cc(NC(=O)CN(C(=O)OCOC(=O)c2ccc(F)cc2)C(C)(C)C)c(O)c2c1C[C@H]1C[C@H]3[C@H](N(C)C)C(O)=C(C(N)=O)C(=O)[C@@]3(O)C(O)=C1C2=O [Example 52]	4 to 16 µg/mL
CCCCOC(=O)N(CC(=O)Nc1cc(N(C)C)c2c(c1O)C(=O)C1=C(O)[C@]3(O)C(=O)C(C(N)=O)=C(O)[C@@H](N(C)C)[C@@H]3C[C@@H]1C2)C(C)(C)C [Example 58]	> 64 µg/mL
Cc1cc(C)cc(C(=O)OCOC(=O)N(CC(=O)Nc2cc(N(C)C)c3c(c2O)C(=O)C2=C(O)[C@]4(O)C(=O)C(C(N)=O)=C(O)[C@@H](N(C)C)[C@@H]4C[C@@H]2C3)C(C)(C)C)c1 [Example 51]	32 to 64 µg/mL

----------
# Tested on: S. epidermidis GC 4935
# MEASUREMENT DESCRIPTION: MIC, broth microdilution
# SETUP CONDITIONS: Staphylococcus epidermidis, GC4935, S. epidermidis GC 4935; Water pre-incubation
EXPERIMENTAL ENDPOINT: MIC

COMPOUND	RECORDED VALUE
CCCCN(CC(=O)Nc1cc(N(C)C)c2c(c1O)C(=O)C1=C(O)[C@]3(O)C(=O)C(C(N)=O)=C(O)[C@@H](N(C)C)[C@@H]3C[C@@H]1C2)C(=O)OCOC(=O)c1ccc(F)cc1	4 µg/mL
CCCCN(CC(=O)Nc1cc(N(C)C)c2c(c1O)C(=O)C1=C(O)[C@]3(O)C(=O)C(C(N)=O)=C(O)[C@@H](N(C)C)C3CC1C2)C(=O)OCOC(=O)c1ccc(OC)cc1 (stereo partly drawn)	8 µg/mL
CCCN(CC(=O)Nc1cc(N(C)C)c2c(c1O)C(=O)C1=C(O)[C@]3(O)C(=O)C(C(N)=O)=C(O)[C@@H](N(C)C)[C@@H]3C[C@@H]1C2)C(=O)OCc1ccccc1	8 µg/mL
CCCN(CC(=O)Nc1cc(N(C)C)c2c(c1O)C(=O)C1=C(O)[C@]3(O)C(=O)C(C(N)=O)=C(O)[C@@H](N(C)C)[C@@H]3C[C@@H]1C2)C(=O)OCOC(=O)C1CCC1	2 µg/mL
CCCCN(CC(=O)Nc1cc(N(C)C)c2c(c1O)C(=O)C1=C(O)[C@]3(O)C(=O)C(C(N)=O)=C(O)[C@@H](N(C)C)[C@@H]3C[C@@H]1C2)C(=O)OCOC(=O)Cc1ccccc1	8 µg/mL
CCCCN(CC(=O)Nc1cc(N(C)C)c2c(c1O)C(=O)C1=C(O)[C@]3(O)C(=O)C(C(N)=O)=C(O)[C@@H](N(C)C)[C@@H]3C[C@@H]1C2)C(=O)OCOC(=O)C(C)(C)C	8 µg/mL

----------
Listing of entries alongside the reported MIC.
# System: S. aureus GC 6466
# MEASUREMENT DESCRIPTION: MIC, broth microdilution
# SETUP CONDITIONS: Staphylococcus aureus, GC6466, read-out: MINIMAL INHIBITORY CONCENTRATION MIC, pre-incubated in Mouse Serum

SMILES DATA	MIC, µg/mL
CCCN(CC(=O)Nc1cc(N(C)C)c2c(c1O)C(=O)C1=C(O)[C@]3(O)C(=O)C(C(N)=O)=C(O)[C@@H](N(C)C)[C@@H]3C[C@@H]1C2)C(=O)OCOC(=O)c1cc(C)cc(C)c1	0.25
CC(C)C(=O)OCOC(=O)N(CC(=O)Nc1cc(N(C)C)c2c(c1O)C(=O)C1=C(O)[C@]3(O)C(=O)C(C(N)=O)=C(O)[C@@H](N(C)C)[C@@H]3C[C@@H]1C2)C(C)(C)C	0.25
CN(C)c1cc(NC(=O)CN(C(=O)OCOC(=O)C2CCCC2)C(C)(C)C)c(O)c2c1C[C@H]1C[C@H]3[C@H](N(C)C)C(O)=C(C(N)=O)C(=O)[C@@]3(O)C(O)=C1C2=O	0.25
CN(C)c1cc(NC(=O)CN(C(=O)OCOC(=O)CC(C)(C)C)C(C)(C)C)c(O)c2c1C[C@H]1C[C@H]3[C@H](N(C)C)C(O)=C(C(N)=O)C(=O)[C@@]3(O)C(O)=C1C2=O	2

----------
# Test system: E. coli GC 2233
# MEASUREMENT DESCRIPTION: MIC, broth microdilution
# SETUP CONDITIONS: Escherichia coli, GC2233, E. coli GC 2233; Mouse Serum pre-incubation

MOLECULE	ASSAY TARGET	MIC
CCCN(CC(=O)Nc1cc(N(C)C)c2c(c1O)C(=O)C1=C(O)[C@]3(O)C(=O)C(C(N)=O)=C(O)[C@@H](N(C)C)[C@@H]3C[C@@H]1C2)C(=O)OCC(C)C [Example 16]	E. coli GC 2233	> 64 µg/mL
CCCN(CC(=O)Nc1cc(N(C)C)c2c(c1O)C(=O)C1=C(O)[C@]3(O)C(=O)C(C(N)=O)=C(O)[C@@H](N(C)C)[C@@H]3C[C@@H]1C2)C(=O)OCC [Example 15]	E. coli GC 2233	> 64 µg/mL
CCCN(CC(=O)Nc1cc(N(C)C)c2c(c1O)C(=O)C1=C(O)[C@]3(O)C(=O)C(C(N)=O)=C(O)[C@@H](N(C)C)[C@@H]3C[C@@H]1C2)C(=O)OCOC(=O)C(C)(C)C [Example 9]	E. coli GC 2233	0.5 µg/mL

----------
# Tested on: S. pneumoniae* GC 4465
# MEASUREMENT DESCRIPTION: MIC, broth microdilution
# SETUP CONDITIONS: Streptococcus pneumoniae, read-out: MINIMAL INHIBITORY CONCENTRATION MIC, pre-incubated in Water
MIC values, listed per item

SMILES DATA	RESULT MODIFIER	MIC / µg/mL
CCCN(CC(=O)Nc1cc(N(C)C)c2c(c1O)C(=O)C1=C(O)[C@]3(O)C(=O)C(C(N)=O)=C(O)[C@@H](N(C)C)[C@@H]3C[C@@H]1C2)C(=O)OCOC(=O)c1ccc(C(C)(C)C)cc1	<	0.06
CCCN(CC(=O)Nc1cc(N(C)C)c2c(c1O)C(=O)C1=C(O)[C@]3(O)C(=O)C(C(N)=O)=C(O)[C@@H](N(C)C)[C@@H]3C[C@@H]1C2)C(=O)OCOC(=O)c1cccs1	=	0.25
CC(C)C(=O)OCOC(=O)N(CC(=O)Nc1cc(N(C)C)c2c(c1O)C(=O)C1=C(O)[C@]3(O)C(=O)C(C(N)=O)=C(O)[C@@H](N(C)C)[C@@H]3C[C@@H]1C2)C(C)(C)C	=	0.5
CCCCN(CC(=O)Nc1cc(N(C)C)c2c(c1O)C(=O)C1=C(O)[C@]3(O)C(=O)C(C(N)=O)=C(O)[C@@H](N(C)C)[C@@H]3C[C@@H]1C2)C(=O)OCOC(=O)c1ccc(-c2ccccc2)cc1	=	0.5

----------
Parameter MIC: see the listing below.
# Test system: E. coli GC 6465
# MEASUREMENT DESCRIPTION: MIC, broth microdilution
# SETUP CONDITIONS: Escherichia coli, GC6465, E. coli GC 6465; Mouse Serum pre-incubation

COMPOUND	MIC (µg/mL)
CCCCN(CC(=O)Nc1cc(N(C)C)c2c(c1O)C(=O)C1=C(O)[C@]3(O)C(=O)C(C(N)=O)=C(O)[C@@H](N(C)C)C3CC1C2)C(=O)OCOC(=O)c1ccc(C)cc1 (stereo partly shown)	8
CCCN(CC(=O)Nc1cc(N(C)C)c2c(c1O)C(=O)C1=C(O)[C@]3(O)C(=O)C(C(N)=O)=C(O)[C@@H](N(C)C)[C@@H]3C[C@@H]1C2)C(=O)OCOC(=O)c1ccc(OC)cc1	4
CCCCN(CC(=O)Nc1cc(N(C)C)c2c(c1O)C(=O)C1=C(O)[C@]3(O)C(=O)C(C(N)=O)=C(O)[C@@H](N(C)C)[C@@H]3C[C@@H]1C2)C(=O)OCOC(=O)Cc1ccccc1	8
CCCCN(CC(=O)Nc1cc(N(C)C)c2c(c1O)C(=O)C1=C(O)[C@]3(O)C(=O)C(C(N)=O)=C(O)[C@@H](N(C)C)C3CC1C2)C(=O)OCOC(=O)C(C)C (stereo partly shown)	8
